Reported IC50 is given for each of the following molecules.
SYSTEM_NAME: Interleukin-1 receptor-associated kinase 4 (Homo sapiens, UniProt Q9NWZ3)
Sequence (Q9NWZ3 whole entry): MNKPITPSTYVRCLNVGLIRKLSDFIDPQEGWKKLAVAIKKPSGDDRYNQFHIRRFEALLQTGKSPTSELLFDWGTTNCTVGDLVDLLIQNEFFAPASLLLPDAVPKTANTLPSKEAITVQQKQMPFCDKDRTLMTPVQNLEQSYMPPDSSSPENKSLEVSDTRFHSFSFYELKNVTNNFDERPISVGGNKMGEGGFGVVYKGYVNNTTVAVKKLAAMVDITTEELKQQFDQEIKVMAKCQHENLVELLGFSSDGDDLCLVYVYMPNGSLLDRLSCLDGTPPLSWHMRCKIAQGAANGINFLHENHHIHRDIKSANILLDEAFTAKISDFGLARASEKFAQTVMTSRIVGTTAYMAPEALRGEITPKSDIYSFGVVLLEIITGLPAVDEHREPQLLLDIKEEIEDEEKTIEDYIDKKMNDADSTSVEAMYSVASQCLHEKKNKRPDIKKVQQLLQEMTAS
EXPERIMENT: Inhibition of IRAK4 in human PBMC assessed as reduction in R848-stimulated TNF alpha production after 3 hrs
Numeric only. Scale: µM

# RECORD_SMILES, IC50, µM
data = [
    ("CCC[C@@H]1CC(=O)N[C@@H]1COc1nccc2cc(C(N)=O)c(OC)cc12", 0.0284),
    ("COC[C@@H]1CC(=O)N[C@@H]1COc1nccc2cc(C(N)=O)c(OC)cc12", 0.373),
]

Which IC50 is reported for this molecule? "CC(C)Oc1cc2c(O[C@@H]3CCCNC3)nccc2cc1C(N)=O" 1.55
